Test system: HLA-A*24
Assay: MHC binding assay, UV-ligand exchange with beta2m ELISA (exchange yield), HLA-A*24
Parameters: species or system human
Conditions: binding to HLA-A*24, UV-ligand exchange
Measured parameter: Peptide exchange (MHC class I binding score, peptide exchange yield)

The cases that follow already have their Peptide exchange (MHC class I binding score, peptide exchange yield) on record.
{"Substance": "176 (FYINGQYQF; listed as Homo sapiens) [compound 176]", "Measured": "+++ (50%-75% = +++)"}
{"Substance": "267 (SFLNIEKTEILF; listed as Homo sapiens) [compound 267]", "Measured": "++ (20%-49% = ++)"}
{"Substance": "140 (RYLINSYDF; listed as Homo sapiens) [compound 140]", "Measured": "++++ (>=75% = ++++)"}
{"Substance": "172 (VFIFKGNEF; listed as Homo sapiens) [compound 172]", "Measured": "++++ (>=75% = ++++)"}
{"Substance": "157 (DYIPASGFALF; listed as Homo sapiens) [compound 157]", "Measured": "+++ (50%-75% = +++)"}
{"Substance": "372 (VYVIEPHSMEF; listed as Homo sapiens) [compound 372]", "Measured": "+++ (50%-75% = +++)"}
{"Substance": "134 (AYIPTPIYF; listed as Homo sapiens) [compound 134]", "Measured": "+++ (50%-75% = +++)"}
{"Substance": "142 (VYVDDIYVI; listed as Homo sapiens) [compound 142]", "Measured": "+++ (50%-75% = +++)"}

Problem: Which Peptide exchange (MHC class I binding score, peptide exchange yield) is reported for this substance? 378 (VYIAELEKI; listed as Homo sapiens) [compound 378]
Solution: +++ (50%-75% = +++)

Problem: Reported Peptide exchange (MHC class I binding score, peptide exchange yield), substance 246 (KYLSVQLTL; listed as Homo sapiens) [compound 246] : ____
Solution: ++ (20%-49% = ++)

Problem: Reported Peptide exchange (MHC class I binding score, peptide exchange yield), substance 155 (IYKWITDNF; listed as Homo sapiens) [compound 155] : ____
Solution: ++++ (>=75% = ++++)

Problem: Item under review: 216 (FYVNVKEQF; listed as Homo sapiens) [compound 216] . Reported Peptide exchange (MHC class I binding score, peptide exchange yield)?
Solution: +++ (50%-75% = +++)

Problem: Param item = 114 (QYLDGTWSL; listed as Homo sapiens) [compound 114] ; retrieve measured Peptide exchange (MHC class I binding score, peptide exchange yield).
Solution: ++++ (>=75% = ++++)

Problem: Any idea what its Peptide exchange (MHC class I binding score, peptide exchange yield) is? The substance is 292 (FYPQIINTF; listed as Homo sapiens) [compound 292]
Solution: ++++ (>=75% = ++++)

Problem: Look up Peptide exchange (MHC class I binding score, peptide exchange yield): 197 (IFTDIFHYL; listed as Homo sapiens) [compound 197]
Solution: ++++ (>=75% = ++++)

Problem: Endpoint output: Peptide exchange (MHC class I binding score, peptide exchange yield) of 165 (EYFTPLLSGQF; listed as Homo sapiens) [compound 165] . Value?
Solution: +++ (50%-75% = +++)

Problem: Fill in: Peptide exchange (MHC class I binding score, peptide exchange yield) of 115 (RYLNKSFVL; listed as Homo sapiens) [compound 115] is ___
Solution: +++ (50%-75% = +++)

Problem: Using the record for 208 (TYLEKIDGF; listed as Homo sapiens) [compound 208] , report its Peptide exchange (MHC class I binding score, peptide exchange yield).
Solution: ++++ (>=75% = ++++)

Problem: What value of Peptide exchange (MHC class I binding score, peptide exchange yield) has been recorded for this entry: 103 (NYIPVKNGKQF; listed as Homo sapiens) [compound 103]
Solution: +++ (50%-75% = +++)

Problem: Reported Peptide exchange (MHC class I binding score, peptide exchange yield) for 120 (GYIEHFSLW; listed as Homo sapiens) [compound 120] : what is it?
Solution: ++++ (>=75% = ++++)

Problem: State the recorded Peptide exchange (MHC class I binding score, peptide exchange yield) for this entry: 294 (RFPVQGTVTF; listed as Homo sapiens) [compound 294]
Solution: +++ (50%-75% = +++)

---

Target: HLA-A*02:01 (Homo sapiens, UniProt P04439, D140Y/D185E/D98H/E176V/E277Q/G131W/G231S/I119V/I121R/I166T/I218V/L300P/L318F/N151K/N90K/P208A/P217A/Q86G/Q94H/R138H/R169H/T345S)
Test: MHC binding assay, UV-ligand exchange with beta2m ELISA (exchange yield), HLA-A*02
Details: binding to HLA-A*02 ranged by peptide exchange yield
Measured parameter: Peptide exchange (MHC class I binding score)

These recorded examples may help you get a feel for the data.
{"Substance": "44 (GLLWQIIKV; listed as Homo sapiens) [compound 44]", "Measured": "++ (20%-49% = ++)"}
{"Substance": "14 (LLDHLSFINKI; listed as Homo sapiens) [compound 14]", "Measured": "++ (20%-49% = ++)"}
{"Substance": "46 (SLAKHGIVAL; listed as Homo sapiens) [compound 46]", "Measured": "+++ (50%-75% = +++)"}
{"Substance": "18 (YVLNEEDLQKV; listed as Homo sapiens) [compound 18]", "Measured": "+++ (50%-75% = +++)"}
{"Substance": "65 (KLDGICWQV; listed as Homo sapiens) [compound 65]", "Measured": "+++ (50%-75% = +++)"}

Problem: What does the data say about its Peptide exchange (MHC class I binding score)? Entry: 55 (IASAIVNEL; listed as Homo sapiens) [compound 55]
Solution: ++ (20%-49% = ++)

Problem: Field request: Peptide exchange (MHC class I binding score) | item: 63 (TLSSERDFAL; listed as Homo sapiens) [compound 63]
Solution: + (<20% = +)

Problem: Can you look up the measured Peptide exchange (MHC class I binding score) of 61 (HLPDFVKQL; listed as Homo sapiens) [compound 61] for me?
Solution: ++ (20%-49% = ++)

Problem: Returns the measured Peptide exchange (MHC class I binding score) for the input substance. Input: 85 (STLDGSLHAV; listed as Homo sapiens) [compound 85]
Solution: +++ (50%-75% = +++)

Problem: // returns reported Peptide exchange (MHC class I binding score) for input 45 (VLGPTPELV; listed as Homo sapiens) [compound 45]
Solution: +++ (50%-75% = +++)

Problem: Consider the substance 71 (GLITVDIAL; listed as Homo sapiens) [compound 71] and give its measured Peptide exchange (MHC class I binding score).
Solution: +++ (50%-75% = +++)

Problem: Recorded Peptide exchange (MHC class I binding score) for 9 (FLGDYVENL; listed as Homo sapiens) [compound 9] , please?
Solution: ++ (20%-49% = ++)

Problem: What measured Peptide exchange (MHC class I binding score) goes with 337 (KVLGKIEKV; listed as Homo sapiens) [compound 337] ?
Solution: +++ (50%-75% = +++)

Problem: Which Peptide exchange (MHC class I binding score) is reported for this substance? 333 (GTFLEGVAK; listed as Homo sapiens) [compound 333]
Solution: +++ (50%-75% = +++)

Problem: So what does the record say about Peptide exchange (MHC class I binding score) for 84 (FLEEEITRV; listed as Homo sapiens) [compound 84] ?
Solution: +++ (50%-75% = +++)

Problem: Consider the substance 91 (SSLEPQIQPV; listed as Homo sapiens) [compound 91] and give its measured Peptide exchange (MHC class I binding score).
Solution: + (<20% = +)

Problem: # lookup: Peptide exchange (MHC class I binding score) of 51 (LLLDGDFTL; listed as Homo sapiens) [compound 51]
Solution: +++ (50%-75% = +++)

Problem: Given the substance 328 (SVDSAPAAV; listed as Homo sapiens) [compound 328] , what is its reported Peptide exchange (MHC class I binding score)?
Solution: ++ (20%-49% = ++)

Problem: # query: Peptide exchange (MHC class I binding score) of entry 83 (ELLEYLPQL; listed as Homo sapiens) [compound 83]
Solution: +++ (50%-75% = +++)

---

Tested on: HLA-A*24
Test: MHC binding assay, UV-ligand exchange with beta2m ELISA (exchange yield), HLA-A*24
Design: species or system human
Conditions: binding to HLA-A*24, UV-ligand exchange
Measured parameter: Peptide exchange (MHC class I binding score, peptide exchange yield)

// known answers, use as guide
{"Substance": "277 (FYTFPFQQL; listed as Homo sapiens) [compound 277]", "Measurement target": "HLA-A*24", "Measured": "+++ (50%-75% = +++)"}
{"Substance": "272 (RYVFPLPYL; listed as Homo sapiens) [compound 272]", "Measurement target": "HLA-A*24", "Measured": "++++ (>=75% = ++++)"}
{"Substance": "117 (IYLSDLTYI; listed as Homo sapiens) [compound 117]", "Measurement target": "HLA-A*24", "Measured": "+++ (50%-75% = +++)"}
{"Substance": "164 (HYVPATKVF; listed as Homo sapiens) [compound 164]", "Measurement target": "HLA-A*24", "Measured": "+++ (50%-75% = +++)"}
{"Substance": "265 (SYLNEAFSF; listed as Homo sapiens) [compound 265]", "Measurement target": "HLA-A*24", "Measured": "++++ (>=75% = ++++)"}

Problem: Which Peptide exchange (MHC class I binding score, peptide exchange yield) value belongs to 131 (EYLDRIGQLFF; listed as Homo sapiens) [compound 131] ?
Solution: +++ (50%-75% = +++)

Problem: Which Peptide exchange (MHC class I binding score, peptide exchange yield) value is on record for 102 (VYPFENFEF; listed as Homo sapiens) [compound 102] ?
Solution: +++ (50%-75% = +++)

Problem: Peptide exchange (MHC class I binding score, peptide exchange yield) for 290 (KYGDFKLLEF; listed as Homo sapiens) [compound 290] ?
Solution: ++++ (>=75% = ++++)

Problem: Find the recorded Peptide exchange (MHC class I binding score, peptide exchange yield) belonging to 263 (RYILENHDF; listed as Homo sapiens) [compound 263] and report it.
Solution: +++ (50%-75% = +++)

Problem: Please look up its Peptide exchange (MHC class I binding score, peptide exchange yield): 96 (YYTQYSQTI; listed as Homo sapiens) [compound 96]
Solution: ++++ (>=75% = ++++)

Problem: Would you kindly share the measured Peptide exchange (MHC class I binding score, peptide exchange yield) for 257 (IFIDNSTQPLHF; listed as Homo sapiens) [compound 257] ?
Solution: +++ (50%-75% = +++)

Problem: Given 209 (AFIETPIPLF; listed as Homo sapiens) [compound 209] , state its recorded Peptide exchange (MHC class I binding score, peptide exchange yield).
Solution: ++++ (>=75% = ++++)
